- test: qHTS for Stage-Specific Inhibitors of Vaccinia Orthopoxvirus: mCherry Reporter Primary qHTS; further: nearly all actives have a fitted effect of over 35% in size
- run conditions: Vaccinia virus mCherry reporter infection, fluorescence; series mostly up to 36.5 µM
In all, about 310,000 compounds went through this assay and about 1,900 (0.61%) were called active. Not shown: some 8% with an inconclusive outcome. The call rests on the fitted dose curve; tested in A549 cells. The sample as a whole holds a higher share of actives than the screen did.
API: response.call in 1 for active, 0 for inactive

Some solved cases for reference:
                                   molecule  label
0  COC(=O)[C@]12CCCCC=C1N(Cc1ccco1)C(=O)[C@H](CC(=O)NCC1CCCCC1)C2      0
1  O=C(CCCN1C(=O)/C(=C/c2ccco2)SC1=S)Nc1ccccc1      0
2  COc1ccc(-c2nnc(SC(C)C#N)o2)cc1 (configuration not stated)      1

Assay outcome for COc1ccc(CN(Cc2ccccc2)C(=O)c2ccc(O)cc2)cc1COc1ccc(NC(C)=O)cc1 : what was it? 0

Check the results log: what was the call for Nc1nonc1-n1nnc(C(=O)N/N=C/c2cc(Br)ccc2O)c1CSC1=NCCS1 ? 1

Returns: the outcome recorded for CCOC(=O)[C@]12CCCC=C1N(CCC1=CCCCC1)C(=O)[C@H](CC(=O)NCCCOC)C2 in this assay. 0

Each molecule tested received a call. Report the one for CC(=O)NCCNC(=O)c1cc(-c2cccc3ccccc23)nc2ccccc12 . 0

Recorded test call requested for CCCCCNC(=O)Cc1ccc(OC)cc1 0

From: PubChem BioAssay AID720579
